System: retinoic acid-differentiated SH-SY5Y neuroblastoma cells
Assay: Cytotoxicity in unstressed differentiated SH-SY5Y cells
Assay type: cell-based, human
Settings: 0.5–50 μM, 24 h, XTT
REPORTED PROPERTY: Cytotoxicity to differentiated neuroblastoma cells

[N-]=[N+]=Nc1ccc(Cn2cc(NC(=O)CCCCCCC(=O)NO)cn2)cc1 [3c]	not toxic to the cells
O=C(CCCCCCC(=O)Nc1cnn(Cc2ccccc2)c1)NO [3a]	not toxic to the cells
